# EXPERIMENTAL_SYSTEM: T1, full-length wild type recombinant human LCAT (human, UniProt P04180 25-440)
# T1 construct: also called huLCAT; hLCAT
# T1 sequence: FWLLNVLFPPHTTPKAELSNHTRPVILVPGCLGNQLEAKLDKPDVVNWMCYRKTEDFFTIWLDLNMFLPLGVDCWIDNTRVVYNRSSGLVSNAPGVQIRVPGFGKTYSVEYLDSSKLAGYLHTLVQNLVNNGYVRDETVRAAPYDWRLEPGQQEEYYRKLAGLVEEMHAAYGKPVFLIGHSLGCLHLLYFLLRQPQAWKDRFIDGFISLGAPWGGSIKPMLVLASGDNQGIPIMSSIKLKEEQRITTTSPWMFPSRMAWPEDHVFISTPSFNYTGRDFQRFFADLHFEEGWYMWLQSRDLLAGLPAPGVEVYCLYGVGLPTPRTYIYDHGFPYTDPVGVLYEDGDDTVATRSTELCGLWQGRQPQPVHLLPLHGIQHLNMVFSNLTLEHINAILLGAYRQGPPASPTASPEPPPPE
# PROTOCOL_TEXT: Binding Affinity (nM), Table 12; method not restated (BIAcore of Example 3 presumed)
READOUT_KIND: Kd (nM)
I only need the number, in nM, no unit after it.

Inquiry: Give a short answer stating reported Kd for 27C3(S42A, S131T, M136I/I112V) (antibody, human IgG2, lambda, V domains shown, IgG2 lambda; The mutations are already in the entries) VH: QVQLQESGPGLVKPSQTLSLTCTVSGASISSGGYNWAWIRQHPGKGLEWIGYIYYSGSTYYNPSLKSRVTISVDTSKNQFSLKLSSVTAADTAVYYCARERGYCSSTTCSRVIDVWGQGTTVTVSS VL: SSELTQDPAVSVALGQTVRITCQGDSLRSYYASWYQQKPGQAPVLVIYGKNNRPSGIPDRFSGSSSGNTASLTITGAQAEDEADYYCNSRDNVGNHQVFGGGTKLTVLG .
Reply text: 3
